Target: human CYP4A11 (Homo sapiens (Human), UniProt Q02928)
Sequence (Q02928 5-519): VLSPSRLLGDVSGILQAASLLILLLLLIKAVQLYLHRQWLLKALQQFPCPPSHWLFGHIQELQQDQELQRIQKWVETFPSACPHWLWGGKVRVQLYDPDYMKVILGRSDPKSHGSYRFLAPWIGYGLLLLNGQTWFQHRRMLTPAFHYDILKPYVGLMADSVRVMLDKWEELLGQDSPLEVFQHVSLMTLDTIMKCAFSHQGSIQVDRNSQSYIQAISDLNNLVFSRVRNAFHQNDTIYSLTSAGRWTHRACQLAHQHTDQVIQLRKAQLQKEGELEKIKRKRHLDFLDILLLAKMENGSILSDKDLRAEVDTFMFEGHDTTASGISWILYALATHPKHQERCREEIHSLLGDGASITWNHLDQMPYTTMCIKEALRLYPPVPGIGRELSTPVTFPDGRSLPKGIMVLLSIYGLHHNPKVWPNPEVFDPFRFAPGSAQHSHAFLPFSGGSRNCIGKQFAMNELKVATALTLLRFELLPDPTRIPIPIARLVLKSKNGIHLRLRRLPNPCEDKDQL
Assay: Inhibition test against 20-HETE producing enzyme CYP4A11 (luciferine derivative, luminescence)
Type: biochemical
Settings: human CYP4A11, luciferine derivative, luminescence
pIC50: −log10 of the molar value.
endpoint: pIC50

// worked examples, pIC50 included
O=C(O)C1(OCCCCCCCOc2ccc(-c3ccn[nH]3)nc2)CC1 [Example 71-5] :: 7.02
CN(C(=O)Cc1cccc(COc2ccc(-c3ccn[nH]3)nc2)c1)S(C)(=O)=O [Example 44-4] :: 6.39
CN(C)C(=O)[C@H]1C[C@](O)(c2cccc(COc3ccc(-c4ccn[nH]4)nc3)c2)C1 [Example 42-21] :: 6.37
O=C(c1cccc(COc2ccc(-c3ccn[nH]3)nc2)c1)N1CCC(F)(C(=O)O)C1 (stereo not drawn) [Example 45-37] :: 6.92
CC(C)(OCCCCCCCCOc1ccc(-c2ccn[nH]2)nc1)C(=O)O [Example 72-1] :: 6.35

P = CNC(=O)C(C)c1cccc(COc2ccc(-c3ccn[nH]3)nc2)c1 (stereo not drawn) [Example 42-23]
Q = O=C(c1cc(COc2ccc(-c3ccn[nH]3)nc2)ccn1)N1CCC(F)(C(=O)O)C1 (stereo not drawn) [Example 45-38]
Data request: Please indicate which entry, P or Q , has the lower recorded pIC50 value. # reply format: chosen label
Data returned: Q
(Q: 6.51, P: 6.80)

====

Target: human CYP4F2 (Homo sapiens (Human), UniProt P78329)
Sequence (P78329 5-520): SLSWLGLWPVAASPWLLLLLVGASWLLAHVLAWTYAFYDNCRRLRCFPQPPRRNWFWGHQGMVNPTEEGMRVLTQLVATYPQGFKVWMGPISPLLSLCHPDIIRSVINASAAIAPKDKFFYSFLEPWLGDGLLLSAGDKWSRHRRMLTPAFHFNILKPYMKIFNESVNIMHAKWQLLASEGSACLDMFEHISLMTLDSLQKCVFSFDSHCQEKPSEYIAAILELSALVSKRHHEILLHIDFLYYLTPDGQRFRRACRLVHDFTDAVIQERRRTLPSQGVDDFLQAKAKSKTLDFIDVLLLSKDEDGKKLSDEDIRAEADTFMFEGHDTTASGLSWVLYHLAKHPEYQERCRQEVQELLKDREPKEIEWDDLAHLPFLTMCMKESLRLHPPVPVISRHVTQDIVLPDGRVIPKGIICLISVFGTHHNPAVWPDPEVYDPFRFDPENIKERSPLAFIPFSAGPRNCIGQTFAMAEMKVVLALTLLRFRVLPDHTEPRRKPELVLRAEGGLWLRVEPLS
Assay: Inhibition test against 20-HETE producing enzyme CYP4F2 (luciferine derivative, luminescence)
Format: biochemical
Conditions: E. coli membrane fraction expressing human CYP4F2, 2.5 μM luciferine derivative, room temperature 60 minutes
Text: (1) Inhibition Test for Each Compound of the Present Invention Against 20-HETE Producing Enzymes (CYP4F2 and CYP4A11) […] A: Luminescence value with addition of compound B: Luminescence value without addition of compound and enzyme
endpoint: IC50 (nM)

// worked examples, IC50 included
CCC(CC)(CCCCOc1ccc(-c2ccn[nH]2)nc1)C(=O)O :: 7500
CC(C)(C(=O)O)n1ccc(CCCCOc2ccc(-c3ccn[nH]3)nc2)n1 :: 11000
O=C(CCCC1(C(=O)O)CCCC1)N1CCC(COc2ccc(-c3ccn[nH]3)nc2)CC1 :: 150

P = CC(C)(CC(=O)N1CCC(CCCOc2ccc(-c3ccn[nH]3)nc2)CC1)C(=O)O
Q = Oc1cc(CCCCOc2ccc(-c3ccn[nH]3)nc2)on1
Data request: Which entry has a larger number for IC50, P or Q ? # reply format: chosen label
Data returned: Q
(Q: 780 nM, P: 160 nM)

====

Target: human CYP4F2 (Homo sapiens (Human))
Assay: Inhibition test against 20-HETE producing enzyme CYP4F2 (luciferine derivative, luminescence)
Type: biochemical
Details: E. coli membrane fraction expressing human CYP4F2, 2.5 μM luciferine derivative, room temperature 60 minutes
endpoint: IC50 (nM)

O=C(O)c1ccc(CCOc2ccc(-c3ccn[nH]3)nc2)cc1 :: 3500
CC(C)(C(=O)O)C(=O)N1CCc2ccc(COc3ccc(-c4ccn[nH]4)nc3)cc2C1 :: 180
CC(C(=O)O)c1cccc(COc2ccc(-c3ccn[nH]3)nc2)c1 (stereo not shown) :: 13000
NS(=O)(=O)c1cccc(C(=O)N2CCC[C@@H](COc3ccc(-c4ccn[nH]4)nc3)C2)c1 :: 590
Oc1cccc(COc2ccc(-c3ccn[nH]3)nc2)c1 :: 34
O=C(O)Cn1ccc(-c2cccc(COc3ccc(-c4ccn[nH]4)nc3)c2)cc1=O :: 650

P = O=C(O)C1(CCCCOc2ccc(-c3ccn[nH]3)nc2)CCCCC1
Q = CC(C)(O)c1cccc(COc2ccc(-c3ccn[nH]3)nc2)c1
Data request: Please indicate which entry, P or Q , has the lower recorded IC50 value. # reply format: chosen label
Data returned: Q
(Q: 400 nM, P: 2200 nM)

a = O=C(O)c1ccnc(-c2cccc(COc3ccc(-c4ccn[nH]4)nc3)c2)n1
b = O=C(O)CCCCCCCCCOc1ccc(-c2ccn[nH]2)nc1
Data request: Please indicate which entry, a or b , has the lower recorded IC50 value. # reply format: chosen label
Data returned: b
(b: 41 nM, a: 3100 nM)
